We begin with a simple list: items and their reported Percent Effect.
- Tested on: Leishmania donovani
- assay protocol: Leishmania intramacrophage assay
- Type: functional, organism-based
- Parameters: scale not given: in the data most compounds retested in dose-response had high values
- assay setup: 30.3 µM; […]
Screen size: about 69,000 compounds; about 1,000 (1.4%) showed an effect of 50% or more. Only a selection was taken, and strong results are over-represented in it overall.
Please give a number only; it is taken to be in %.

Before answering, review these 3 worked examples.
Ask: Name the recorded Percent Effect of the item CCOCCC(=O)N(C)Cc1noc(C(C)C)n1 in your answer.
Reply: 0.5615

Ask: Name the recorded Percent Effect of the item c1cc(-c2ccc3c(c2)CCC32CCN(c3nncs3)CC2)co1 in your answer.
Reply: -6.512

Ask: Name the recorded Percent Effect of the item CN(C)S(=O)(=O)N1CCC(c2c(C(N)=O)sc3ccccc23)C1 (centres undefined) in your answer.
Reply: 31.42

Others:
Ask: Name the recorded Percent Effect of the item CC(O)CN1CC(C)(C)CN(C(=O)CCc2ccccc2)CC1=O (centres undefined) in your answer.
Reply: -1.72

====

- Tested on: Leishmania donovani
- assay protocol: Leishmania intramacrophage assay
- Type: functional, organism-based
- Design: scale not given: in the data most compounds retested in dose-response had high values
- assay setup: 30.3 µM; […]
The whole screen tested about 69,000 compounds, of which about 1,000 (1.4%) showed an effect of 50% or more. The sample holds strong results, similar compounds and a random draw of the others, so the mix is not that of the screen.
quantity: Percent Effect (%)
Please give a number only; it is taken to be in %.

Before answering, review these 3 worked examples.
Ask: Name the recorded Percent Effect of the item CCC[C@H]1CN(S(C)(=O)=O)C[C@@H]1NC(=O)CCOCC in your answer.
Reply: -29.93

Ask: Name the recorded Percent Effect of the item O=C(c1ccc(=O)[nH]n1)N1CCNCC1c1ccccc1 (centres undefined) in your answer.
Reply: -5.209

Ask: Name the recorded Percent Effect of the item Cc1ccccc1CC1(C(=O)O)CCCN(c2ncnc3[nH]ccc23)C1 (centres undefined) in your answer.
Reply: -3.526

Others:
Ask: Name the recorded Percent Effect of the item CCOC(=O)c1ccccc1NC(=O)CN(C)Cc1ccccc1Cl.O=C(O)C(=O)O in your answer.
Reply: 23.74

Ask: Name the recorded Percent Effect of the item Cc1csc(-c2cccc(NC(=O)N3CCOCC3)c2)n1 in your answer.
Reply: 24.69

Ask: Name the recorded Percent Effect of the item CN(C)S(=O)(=O)CCCOc1cccc(-n2ccnc2)c1 in your answer.
Reply: -0.5544

Ask: Name the recorded Percent Effect of the item CC(C)c1cc(C(=O)N2CCOCC2CC(=O)c2ccco2)nn1C (centres undefined) in your answer.
Reply: -24.4

Ask: Name the recorded Percent Effect of the item Cc1cc(Cl)cc(C)c1CNC1CCN(CC(=O)N(C)C)CC1 in your answer.
Reply: 66.45

Ask: Name the recorded Percent Effect of the item Cc1ccccc1CN1C[C@@H]2CC[C@H](C1)N(CC1CCC1)C2=O in your answer.
Reply: 6.524

Ask: Name the recorded Percent Effect of the item CS(=O)(=O)CCN1CCN(c2ccc(Cl)cn2)CC1 in your answer.
Reply: 0.04205

====

- Tested on: Leishmania donovani
- assay protocol: Leishmania intramacrophage assay
- Type: functional, organism-based
- Design: scale not given: in the data most compounds retested in dose-response had high values
- assay setup: 30.3 µM; […]
The campaign covered roughly 69,000 compounds. About 1,000 (1.4%) showed an effect of 50% or more. The sample as a whole holds a higher share of strong results than the screen did.
quantity: Percent Effect (%)
Please give a number only; it is taken to be in %.

Before answering, review these 3 worked examples.
Ask: Name the recorded Percent Effect of the item CC(=O)N1CC[C@H]2OCC[C@@]2(C(=O)NCCc2ccccn2)C1.O=C(O)C(F)(F)F in your answer.
Reply: -0.5887

Ask: Name the recorded Percent Effect of the item O=C(CCCn1cnc2ccccc2c1=O)Nc1nc[nH]n1 in your answer.
Reply: -11.87

Ask: Name the recorded Percent Effect of the item Cc1c(C)n(CC(O)CN2CCCCCC2)c2c(Cl)cccc12 (stereo not drawn) in your answer.
Reply: -13.19

Others:
Ask: Name the recorded Percent Effect of the item CN1CCC(N(Cc2ccco2)S(=O)(=O)c2cc(Br)ccc2Br)CC1 in your answer.
Reply: 95.6

Ask: Name the recorded Percent Effect of the item CCn1nc(C)c(-c2cncn2CCN(C)C2CCCC2)c1C.Cl in your answer.
Reply: 32.48

Ask: Name the recorded Percent Effect of the item CN1CCCN(C(=O)c2csc(-c3ccc(C(F)(F)F)cc3)n2)CC1 in your answer.
Reply: -34.88

Ask: Name the recorded Percent Effect of the item O=C1N(CCC2CCCCC2)CCCC1(O)CNCCc1ccccc1 (stereo not drawn) in your answer.
Reply: 74.42

Ask: Name the recorded Percent Effect of the item O=C1CCN(C(=O)c2csc(-c3ccc(C(F)(F)F)cc3)n2)CCN1 in your answer.
Reply: -4.65

Ask: Name the recorded Percent Effect of the item COCCNCC1(O)CCCN(Cc2ccc(F)c(F)c2)C1=O (stereo not drawn) in your answer.
Reply: 36.88

Ask: Name the recorded Percent Effect of the item CCNC(=O)[C@@H]1C[C@H](NC(=O)c2cncnc2C)CN1Cc1ccsc1 in your answer.
Reply: 37.2

Ask: Name the recorded Percent Effect of the item CN1CCC(N(Cc2ccco2)S(=O)(=O)c2ccc(Br)cc2Cl)CC1 in your answer.
Reply: 87.02
